All values here come from ChEMBL document CHEMBL1139184.

Molecular target: Estrogen receptor (Homo sapiens) (UniProt P03372)
Sequence (whole entry): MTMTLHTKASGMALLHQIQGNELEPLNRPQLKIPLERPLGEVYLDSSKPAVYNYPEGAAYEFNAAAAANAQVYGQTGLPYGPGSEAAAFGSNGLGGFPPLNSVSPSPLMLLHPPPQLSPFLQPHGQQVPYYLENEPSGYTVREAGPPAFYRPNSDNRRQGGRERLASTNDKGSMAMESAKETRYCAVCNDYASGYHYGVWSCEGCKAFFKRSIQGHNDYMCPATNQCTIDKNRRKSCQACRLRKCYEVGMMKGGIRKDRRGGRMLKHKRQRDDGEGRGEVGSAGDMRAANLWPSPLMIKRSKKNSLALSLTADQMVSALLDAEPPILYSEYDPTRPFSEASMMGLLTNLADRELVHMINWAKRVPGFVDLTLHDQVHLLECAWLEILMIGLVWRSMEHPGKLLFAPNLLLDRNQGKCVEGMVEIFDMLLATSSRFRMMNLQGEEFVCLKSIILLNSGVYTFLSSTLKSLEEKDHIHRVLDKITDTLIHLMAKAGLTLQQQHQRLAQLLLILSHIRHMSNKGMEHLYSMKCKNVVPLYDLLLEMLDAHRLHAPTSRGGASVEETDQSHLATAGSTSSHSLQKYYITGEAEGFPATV
Assay: Displacement of ES2 ligand from human recombinant ERalpha relative to tamoxifen
Listing: relative binding affinity (RBA) of selected molecules
Simply state the number, no unit and no words.

Solved cases (6 shown):
smiles str: CCCCNC(=O)CCCCCCCCCCOC[C@@H]1Cc2ccccc2CN1C(=O)c1cccc(Cl)c1
assay target: Estrogen receptor (Homo sapiens) (UniProt P03372)
measurement name: relative binding affinity (RBA)
observed result: 0.156
//
smiles str: CCCCNC(=O)CCCCCCCCCCOC[C@@H]1Cc2ccccc2CN1C(=O)Cc1cccc(F)c1
assay target: Estrogen receptor (Homo sapiens) (UniProt P03372)
measurement name: relative binding affinity (RBA)
observed result: 0.267
//
smiles str: CCCCNC(=O)CCCCCCCCCCOC[C@@H]1Cc2ccccc2CN1C(=O)c1cccc(O)c1
assay target: Estrogen receptor (Homo sapiens) (UniProt P03372)
measurement name: relative binding affinity (RBA)
observed result: 5
//
smiles str: CCCCNC(=O)CCCCCCCCCCOC[C@@H]1Cc2ccccc2CN1C(=O)c1ccc(O)cc1
assay target: Estrogen receptor (Homo sapiens) (UniProt P03372)
measurement name: relative binding affinity (RBA)
observed result: 1.79
//
smiles str: CCCCNC(=O)CCCCCCCCCCOC[C@@H]1Cc2ccccc2CN1C(=O)c1cccc(F)c1
assay target: Estrogen receptor (Homo sapiens) (UniProt P03372)
measurement name: relative binding affinity (RBA)
observed result: 0.287
//
smiles str: CCCCNC(=O)CCCCCCCCCCOC[C@@H]1Cc2ccccc2CN1C(=O)c1cccc(OC)c1
assay target: Estrogen receptor (Homo sapiens) (UniProt P03372)
measurement name: relative binding affinity (RBA)
observed result: 0.192

// returns reported relative binding affinity (RBA) for input CCCCNC(=O)CCCCCCCCCCOC[C@@H]1Cc2ccccc2CN1C(=O)c1ccccc1F
0.225

// returns reported relative binding affinity (RBA) for input CCCCNC(=O)CCCCCCCCCCOC[C@@H]1Cc2ccccc2CN1C(=O)c1ccc(F)cc1
0.264

// returns reported relative binding affinity (RBA) for input CCCCNC(=O)CCCCCCCCCCOC[C@@H]1Cc2ccccc2CN1C(=O)c1cccc(C)c1
0.156

// returns reported relative binding affinity (RBA) for input CCCCNC(=O)CCCCCCCCCCOC[C@@H]1Cc2ccccc2CN1C(=O)c1ccc(OC)cc1
0.14

// returns reported relative binding affinity (RBA) for input CCCCCCCCNC(=O)CCCCCCCCCCOC[C@@H]1Cc2ccccc2CN1C(=O)c1cccc(F)c1
0.177

// returns reported relative binding affinity (RBA) for input CCCCNC(=O)CCCCCCCCCCOC[C@@H]1Cc2ccccc2CN1C(=O)c1ccc(C)cc1
0.132
